Attribute: protein stability index
# System: Saccharomyces cerevisiae
# procedure_text: protein stability index of tFT-peptide fusion (C-terminal peptide) (PSI (0-1 scale)); higher = more stable (slower turnover);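 also: PSI is a weighted mean of sequencing reads over stability bins, variants kept only with over 10 reads, mCherry proximal and sfGFP distal, peptide attached via GGGS linker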
# experimental_setup: genetic background: wild type; temperature: 30 C
Form rule: numeric answer, no unit written next to it.

{"sequence_chain": "NCMFKSNKQGGA", "protein stability index": 0.675}
{"sequence_chain": "RYFCPVLGPVNF", "protein stability index": 0.652}
{"sequence_chain": "ATVGVGSLLVKY", "protein stability index": 0.747}

Please report the recorded protein stability index for GCRELVRCVMLG . 0.669

Please report the recorded protein stability index for FESTCSGLLYNS . 0.694

Please report the recorded protein stability index for GLSDLTFFKRLF . 0.659

Please report the recorded protein stability index for CSLWVLKLFLGV . 0.544

Please report the recorded protein stability index for KLGRIWNFTLSA . 0.628

Please report the recorded protein stability index for SRPRLPPSPCLF . 0.631

---

# Test system: Saccharomyces cerevisiae
# procedure_text: protein stability index of tFT-peptide fusion (C-terminal peptide) (PSI (0-1 scale)); higher = more stable (slower turnover)
# experimental_setup: genetic background: wild type; temperature: 30 C
Quick rule for you: protein stability index at 0.6 or higher means criterion met, lower means criterion not met.

{"sequence_chain": "FWLFAFVIRKHI", "assigned_label": "criterion not met"}
{"sequence_chain": "RGWGGGRVAREC", "assigned_label": "criterion met"}
{"sequence_chain": "FLLFSFFFFFFF", "assigned_label": "criterion not met"}
{"sequence_chain": "PRGLLLPLPCHS", "assigned_label": "criterion not met"}
{"sequence_chain": "LFGRVLSGILSV", "assigned_label": "criterion not met"}

Test whether the sequence RPPDPPLHHNLP records protein stability index of 0.6 or higher. criterion met

Test whether the sequence PAPPPRPLPSPP records protein stability index of 0.6 or higher. criterion met

Test whether the sequence KAWGGEGRDAWG records protein stability index of 0.6 or higher. criterion met

Test whether the sequence KKHNGHNHQNNF records protein stability index of 0.6 or higher. criterion met

Test whether the sequence FRQWCTEVYIEV records protein stability index of 0.6 or higher. criterion not met

Test whether the sequence TIWLTFGRTPQS records protein stability index of 0.6 or higher. criterion met

Test whether the sequence SPPRPPPSPTPL records protein stability index of 0.6 or higher. criterion met

Test whether the sequence WFLLSLSSFVSS records protein stability index of 0.6 or higher. criterion not met

Test whether the sequence DLGLSYCGYAML records protein stability index of 0.6 or higher. criterion met

Test whether the sequence GYRVNIDIKIVY records protein stability index of 0.6 or higher. criterion not met

Test whether the sequence CRSCFGGGVRFV records protein stability index of 0.6 or higher. criterion met

Test whether the sequence VAGATGRWIGHG records protein stability index of 0.6 or higher. criterion met

Test whether the sequence TPNKKTGNQYPG records protein stability index of 0.6 or higher. criterion met

Test whether the sequence IEETKDYTRKRQ records protein stability index of 0.6 or higher. criterion met

Test whether the sequence PFPPTPSPAPPL records protein stability index of 0.6 or higher. criterion met

Test whether the sequence QFIFSRGGLPVL records protein stability index of 0.6 or higher. criterion met

---

# Test system: Saccharomyces cerevisiae
# procedure_text: protein stability index of tFT-peptide fusion (C-terminal peptide) (PSI (0-1 scale)); higher = more stable (slower turnover)
# experimental_setup: genetic background: cdc34-1; temperature: 37 C
Attribute: protein stability index
Form rule: numeric answer, no unit written next to it.

Worked set:
{"sequence_chain": "VFLLFFFGLFVF", "measured": 0.348}
{"sequence_chain": "LFSVLVFIYFVM", "measured": 0.102}
{"sequence_chain": "GAVKCLVCLAVW", "measured": 0.282}
{"sequence_chain": "RSYAYIIVATVA", "measured": 0.153}
{"sequence_chain": "SFQLVFLCVLIW", "measured": 0.136}
{"sequence_chain": "VFFLLSVYMVMM", "measured": 0.145}

Please report the recorded protein stability index for LCFFLAFSFVFF . 0.253
